- system_tested: BTK (Homo sapiens, UniProt Q06187)
- Sequence (Q06187 whole entry): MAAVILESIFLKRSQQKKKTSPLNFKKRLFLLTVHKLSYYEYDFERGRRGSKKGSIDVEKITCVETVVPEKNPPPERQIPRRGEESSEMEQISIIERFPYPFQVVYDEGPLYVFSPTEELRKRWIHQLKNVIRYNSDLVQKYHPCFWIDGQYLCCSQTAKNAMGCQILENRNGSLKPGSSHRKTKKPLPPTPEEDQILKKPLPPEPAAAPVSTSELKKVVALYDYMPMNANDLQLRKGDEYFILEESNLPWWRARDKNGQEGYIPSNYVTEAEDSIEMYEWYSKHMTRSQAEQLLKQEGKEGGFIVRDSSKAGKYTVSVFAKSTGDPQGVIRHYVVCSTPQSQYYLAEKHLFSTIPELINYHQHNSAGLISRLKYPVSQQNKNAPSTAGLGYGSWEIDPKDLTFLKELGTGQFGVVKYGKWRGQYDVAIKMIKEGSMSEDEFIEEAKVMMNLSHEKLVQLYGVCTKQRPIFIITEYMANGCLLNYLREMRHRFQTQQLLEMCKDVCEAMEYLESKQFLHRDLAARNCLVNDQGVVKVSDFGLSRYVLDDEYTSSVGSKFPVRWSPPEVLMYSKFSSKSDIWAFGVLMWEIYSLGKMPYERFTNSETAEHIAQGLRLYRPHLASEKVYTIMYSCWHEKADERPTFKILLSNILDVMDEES
- assay_details: BTK cell degradation in TMD-8 cells, HTRF assay
- Format: cell-based
- Design: endogenous in cells; host or cells: TMD-8 cells
- study_conditions: 6 h treatment, IC50 (DC50) of BTK degradation
assay_readout: log10 DC50 (log10 of the value in nM)
// stored as log10 of DC50 expressed in nM

Example results:
INPUT: Recorded log10 DC50 for COc1ccccc1C(=O)NCc1ccc(-c2nn3c(c2C(N)=O)Nc2ccc(N4CCN(CC5CCN(c6ccc(N7CCC(=O)NC7=O)cc6)CC5)CC4)cc2CC3)cc1F [Example C19] , please?
OUTPUT: -0.07

INPUT: Recorded log10 DC50 for NC(=O)c1c(-c2ccc(Oc3ccccc3)cc2)nn2c1Nc1cc(C(=O)N3CCC(CN4CCN(c5cc6c(cc5F)C(=O)N(C5CCC(=O)NC5=O)C6=O)CC4)CC3)ccc1CC2 (centres unmarked) [Example A20] , please?
OUTPUT: 1.13

INPUT: Recorded log10 DC50 for Cc1ccnc(NC(=O)c2ccc(-c3nn4c(c3C(N)=O)Nc3ccc(N5CCN(CC6CCN(c7ccc(N8CCC(=O)NC8=O)cc7)CC6)CC5)cc3CC4)cc2)c1 [Example B10] , please?
OUTPUT: 0.67

Others:
INPUT: Recorded log10 DC50 for Cc1cccc(NC(=O)c2ccc(-c3nn4c(c3C(N)=O)Nc3ccc(N5CCN(C(=O)Cc6cccc(N7CCC(=O)NC7=O)c6)CC5)cc3CC4)c(F)c2C)n1 [Example B75] , please?
OUTPUT: 1.48

INPUT: Recorded log10 DC50 for Cc1cccc(NC(=O)c2cnc(-c3nn4c(c3C(N)=O)Nc3ccc(N5CCN(CCc6cc(F)c(C7CCC(=O)NC7=O)c(F)c6)CC5)cc3CC4)cc2C)n1 (centres unmarked) [Example B37] , please?
OUTPUT: 1.18
